FYI, the data here is from ChEMBL document CHEMBL1143689.

assayExplanation: Cmax in rat at 2 mg/kg, iv
Format: ADME, organism-based
Design: dose 2 mg/kg, route intravenous
details: in vivo
measurementType: Cmax (ng/mL)

> print(dat)
                                   compound  testvalue
1  CCC(C)COc1ccc(C(CC(=O)O)c2ccccc2)cc1 (stereo unspecified)       5780

====

assayExplanation: Oral bioavailability in rat at 10 mg/kg, po
Format: ADME, organism-based
details: in vivo
measurementType: bioavailability (%)

> print(dat)
                                   compound  measurementtype  unitinfo  testvalue
1  CCC(C)COc1ccc(C(CC(=O)O)c2ccccc2)cc1 (stereo unspecified)  bioavailability         %         87

====

assayExplanation: Half life in rat at 2 mg/kg, iv
Type: ADME, organism-based
Set-up: dose 2 mg/kg, route intravenous
details: in vivo
measurementType: half-life (h)

> print(dat)
                                   compound  testvalue
1  CCC(C)COc1ccc(C(CC(=O)O)c2ccccc2)cc1 (stereo unspecified)       4.78

====

testSystem: UniProt:O14842
Sequence (O14842 whole entry): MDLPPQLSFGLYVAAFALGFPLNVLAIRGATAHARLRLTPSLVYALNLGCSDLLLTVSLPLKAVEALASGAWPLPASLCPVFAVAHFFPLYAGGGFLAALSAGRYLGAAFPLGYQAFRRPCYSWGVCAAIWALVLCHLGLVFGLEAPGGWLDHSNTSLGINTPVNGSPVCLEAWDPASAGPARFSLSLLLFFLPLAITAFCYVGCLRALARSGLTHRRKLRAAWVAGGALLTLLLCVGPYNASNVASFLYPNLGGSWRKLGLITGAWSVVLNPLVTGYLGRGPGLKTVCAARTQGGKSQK
assayExplanation: Agonist activity at human GPR40 expressed in HEK293 cells assessed as effect on calcium flux
Format: functional, cell-based
measurementType: ED50 (nM)

> print(dat)
                                   compound  comparisonsign  testvalue
1  CCCCOc1ccc(C(CC(=O)O)c2ccccc2)cc1 (centres undefined)               =       1200
2  CCCCCCCOc1ccc(C(CC(=O)O)c2ccccc2)cc1 (centres undefined)               =       4260
3  CC[C@@H](C)COc1ccc(C(CC(=O)O)c2ccccc2)cc1 (stereo in doubt; 22(B,R))               =        710
4  CCCCCCOc1ccc(C(CC(=O)O)c2ccccc2)cc1 (centres undefined)               =       2880
5  CCCCOc1ccc(C(CC(=O)O)c2cccs2)cc1 (centres undefined)               =       1290
6  CCCCOc1ccc(C(CC(=O)O)c2ccc(C(F)(F)F)cc2)cc1 (centres undefined)               >      10000
7  C=C(C)CCOc1ccc(C(CC(=O)O)c2ccccc2)cc1 (centres undefined)               =       2710
8  CC[C@H](C)COc1ccc(C(CC(=O)O)c2ccccc2)cc1 (stereo in doubt; 22(A,S))               >      10000
9  CCCCCOc1cccc(C(CC(=O)O)c2ccccc2)c1 (centres undefined)               >      10000

====

Parameter: Activity. Scope: all listed entries.
testSystem: Free fatty acid receptor 1 (Homo sapiens)
assayExplanation: Agonist activity at human GPR40 expressed in HEK293 cells assessed as calcium flux response relative to linoleic acid
Type: functional, cell-based
Design: concentration or dose not given beside the values
measurementType: Activity (%)

> print(dat)
                                   compound  measurementtype  testvalue
1  C/C=C/COc1ccc(C(CC(=O)O)c2ccccc2)cc1 (configuration not stated)         Activity         75
2  CC(C)CCOc1ccc(C(CC(=O)O)c2ccccc2)cc1 (configuration not stated)         Activity         77
3  CCCCCOc1ccc(C(CC(=O)O)c2ccccc2)cc1 (configuration not stated)         Activity         60
4  CCCCOc1ccc(C(CC(=O)O)c2cccc(C(F)(F)F)c2)cc1 (configuration not stated)         Activity         75
5  CCC(CC)COc1ccc(C(CC(=O)O)c2ccccc2)cc1 (configuration not stated)         Activity         96
6  CCCCCCCOc1ccc(C(CC(=O)O)c2ccccc2)cc1 (configuration not stated)         Activity         70
7  O=C(O)CC(c1ccccc1)c1ccc(OCCCC(F)(F)F)cc1 (configuration not stated)         Activity         72
